Would you kindly list Euclidean distance for each of these compounds?
test system: DU145; experiment: Euclidean distance of Cell Painting phenotypic profile (signed KS, 77 features) to DMSO centroid (dimensionless distance); 5 or 10 uM (library dependent); higher = stronger phenotypic change vs DMSO (phenoactivity); settings: 48 h
Please state the value as a number alone, without comment.

Euclidean distance for DU145 with input `O=C1[C@H](Cc2ccc(O)cc2)N2C(=O)CCN(C(=O)NCc3ccccc3)[C@H]2CN1Cc1cccc2ccccc12` equals 1.39

Euclidean distance for DU145 with input NC(=O)OCC(COC(N)=O)c1ccccc1 [Felbamate] equals 0.57

Euclidean distance for DU145 with input CN1C(N)=N[C@](C)(c2cc(NC(=O)c3ccc(F)cn3)ccc2F)CS1(=O)=O [Verubecestat (MK-8931)] equals 0.609

Euclidean distance for DU145 with input Cc1cc2ncc(C(=O)NCC(C)(C)NCC(=O)N3CCC[C@H]3C#N)cn2n1 [Anagliptin] equals 1.17

Euclidean distance for DU145 with input Nc1ccc(C(=O)O)c(O)c1 [4-Aminosalicylic acid] equals 2.33

----------
Would you kindly list Euclidean distance for each of these molecules?
system: OVCAR4; experiment: Euclidean distance of Cell Painting phenotypic profile (signed KS, 77 features) to DMSO centroid (dimensionless distance); 5 or 10 uM (library dependent); higher = stronger phenotypic change vs DMSO (phenoactivity); settings: 48 h
Where a name gives a salt, the structure may show the parent alone.
Please state the value as a number alone, without comment.

get_value(item= `COC(=O)[C@@H]1CC2=CC(=O)CC[C@]2(C)[C@@]23O[C@@H]2C[C@@]2(C)[C@@H](CC[C@@]24CCC(=O)O4)[C@H]13` , readout=Euclidean distance) returns 0.746

get_value(item= CCN(CC)CCNC(=O)c1cc(Cl)c(N)cc1OC [Metoclopramide HCl] , readout=Euclidean distance) returns 0.647

get_value(item= CC[C@H](C)C(=O)O[C@H]1C[C@H](O)C=C2C=C[C@H](C)[C@H](CC[C@@H](O)C[C@@H](O)CC(=O)O)[C@H]21 [Pravastatin sodium] , readout=Euclidean distance) returns 0.778

get_value(item= `CSc1ccc(C(=O)/C=C/c2cc(C)c(OC(C)(C)C(=O)O)c(C)c2)cc1` , readout=Euclidean distance) returns 0.978

get_value(item= `COc1ccc2cc(CCC(C)=O)ccc2c1` , readout=Euclidean distance) returns 1.55

get_value(item= `CCC(CC)CC1(C(=O)Nc2ccccc2SC(=O)C(C)C)CCCCC1` , readout=Euclidean distance) returns 0.986

get_value(item= CC1Cc2ccccc2N1NC(=O)c1ccc(Cl)c(S(N)(=O)=O)c1 (stereo unspecified) [Indapamide] , readout=Euclidean distance) returns 1.41

get_value(item= CC(C)NCC(O)COc1ccc(CCOCC2CC2)cc1 (stereo unspecified) , readout=Euclidean distance) returns 1.14

get_value(item= `C=CC[C@@H]1/C=C(\C)C[C@H](C)C[C@H](OC)[C@H]2O[C@@](O)(C(=O)C(=O)N3CCCC[C@H]3C(=O)O[C@H](/C(C)=C/[C@@H]3CC[C@@H](O)[C@H](OC)C3)[C@H](C)[C@@H](O)CC1=O)[C@H](C)C[C@@H]2OC` , readout=Euclidean distance) returns 0.647

get_value(item= `CC(C)c1onc(-c2c(Cl)cccc2Cl)c1COc1ccc(/C=C/c2cccc(C(=O)O)c2)c(Cl)c1` , readout=Euclidean distance) returns 1.02

get_value(item= OC[C@H]1O[C@H](O[C@H]2O[C@H](CO)[C@@H](O)[C@H](O)[C@H]2O)[C@H](O)[C@@H](O)[C@@H]1O [D-(+)-Trehalose dihydrate] , readout=Euclidean distance) returns 1.09

----------
test system: 786-O; experiment: Euclidean distance of Cell Painting phenotypic profile (signed KS, 77 features) to DMSO centroid (dimensionless distance); 5 or 10 uM (library dependent); higher = stronger phenotypic change vs DMSO (phenoactivity); details: 48 h
Would you kindly list Euclidean distance for each of these compounds?
Please state the value as a number alone, without comment.

get_value(item= `COc1cc(OC)c(NC(=O)Nc2cc(C)on2)cc1Cl` , readout=Euclidean distance) returns 0.922

get_value(item= Nc1ncnc2c1ncn2C1OC(COP(=O)(O)O)C(O)C1O (stereo unspecified) [Adenosine 5'-monophosphate monohydrate] , readout=Euclidean distance) returns 0.685

get_value(item= `COc1nc(C)nc(Cl)c1NC1=NCCN1` , readout=Euclidean distance) returns 1.15

get_value(item= `O=c1cc(N2CCOCC2)oc2c(-c3cccc4c3sc3ccccc34)cccc12` , readout=Euclidean distance) returns 3.24

get_value(item= `Nc1ccn([C@@H]2CS[C@H](CO)O2)c(=O)n1` , readout=Euclidean distance) returns 0.725

get_value(item= `COc1c(N2C[C@@H]3CCCN[C@@H]3C2)c(F)cc2c(=O)c(C(=O)O)cn(C3CC3)c12` , readout=Euclidean distance) returns 1.32

----------
system: A549; assay: Euclidean distance of Cell Painting phenotypic profile (signed KS, 77 features) to DMSO centroid (dimensionless distance); 5 or 10 uM (library dependent); higher = stronger phenotypic change vs DMSO (phenoactivity); conditions: 48 h
Structures can show the parent of a compound that is named as a salt.
Binary call on Euclidean distance: yes (1) from 1 upward, no (0) beneath that.

Tell me whether Euclidean distance is at least 1 here: C=CC(=O)Nc1cccc(Oc2nc(Nc3ccc(N4CCN(C)CC4)c(F)c3)nc3[nH]ccc23)c1 [Avitinib (AC0010)] yes (1)

Tell me whether Euclidean distance is at least 1 here: N=C(N)NC(=O)Cc1c(Cl)cccc1Cl [Guanfacine Hydrochloride] no (0)

Tell me whether Euclidean distance is at least 1 here: c1ccc2c(c1)CCCC2C1=NCCN1 (stereo not drawn) [Tetrahydrozoline HCl] no (0)

Tell me whether Euclidean distance is at least 1 here: CC(C(O)c1ccc(O)cc1)N1CCC(Cc2ccccc2)CC1 (stereo not drawn) [Ifenprodil Tartrate] no (0)

Tell me whether Euclidean distance is at least 1 here: CN1CCc2nc(C(=O)N[C@@H]3C[C@@H](C(=O)N(C)C)CC[C@@H]3NC(=O)C(=O)Nc3ccc(Cl)cn3)sc2C1 [Edoxaban] no (0)

Tell me whether Euclidean distance is at least 1 here: `CN[C@@H](C)C(=O)N[C@H](C(=O)N1CCC[C@H]1C(=O)Nc1snnc1-c1ccccc1)C1CCCCC1` yes (1)

Tell me whether Euclidean distance is at least 1 here: CN1CCC(=C2c3ccccc3C=Cc3ccccc32)CC1 [Cyproheptadine HCl] no (0)

Tell me whether Euclidean distance is at least 1 here: C[C@@H]1CN(C(=O)c2ccc(NC(=O)c3cc(O[C@H](C)c4c(Cl)ccc(F)c4Cl)c(N)nn3)cc2)C[C@H](C)N1 [Ensartinib (X-396) dihydrochloride] yes (1)

Tell me whether Euclidean distance is at least 1 here: `Cc1cc(Nc2cc(CN3CCOCC3)c3nc(C)c(Cc4ccc(Cl)cc4F)n3n2)n[nH]1` yes (1)

Tell me whether Euclidean distance is at least 1 here: CO[C@@]1(NC(=O)Cc2cccs2)C(=O)N2C(C(=O)O)=C(COC(N)=O)CS[C@@H]21 [Cefoxitin sodium] no (0)

Tell me whether Euclidean distance is at least 1 here: C=CC(=O)Nc1cc(Nc2nccc(-c3cn(C)c4ccccc34)n2)c(OC)cc1N(C)CCN(C)C [Osimertinib mesylate] yes (1)

Tell me whether Euclidean distance is at least 1 here: COc1ccc(Cc2cnc(N)nc2N)cc1OC [Diaveridine] yes (1)

Tell me whether Euclidean distance is at least 1 here: `Cn1ncc(Cl)c1-c1cc(C(=O)N[C@H](CN)Cc2ccc(F)c(F)c2)oc1Cl` yes (1)

Tell me whether Euclidean distance is at least 1 here: `CCC(CC)CC1(C(=O)Nc2ccccc2SC(=O)C(C)C)CCCCC1` yes (1)

Tell me whether Euclidean distance is at least 1 here: `c1ccc2c(CCNc3ccc(Nc4ccncc4)cc3)c[nH]c2c1` yes (1)

Tell me whether Euclidean distance is at least 1 here: CNC(=O)[C@@H](NC(=O)[C@H](CC(C)C)[C@H](O)C(=O)NO)C(C)(C)C [Marimastat (BB-2516)] yes (1)

Tell me whether Euclidean distance is at least 1 here: `Cc1ccc(C(=O)Nc2ccc(CN3CCN(C)CC3)c(C(F)(F)F)c2)cc1C#Cc1cnc2cccnn12` yes (1)

Tell me whether Euclidean distance is at least 1 here: `Nc1nccc(Oc2ccc(NC(=O)c3c[nH]cc(-c4ccc(F)cc4)c3=O)cc2F)c1Cl` yes (1)

Tell me whether Euclidean distance is at least 1 here: CCCCCCc1ccc(O)cc1O [Hexylresorcinol] no (0)

Tell me whether Euclidean distance is at least 1 here: COc1ccccc1OCC(O)CN1CCN(CC(=O)Nc2c(C)cccc2C)CC1 (stereo not drawn) [Ranolazine] no (0)

Tell me whether Euclidean distance is at least 1 here: O=C(O)c1ccccc1OP(=O)(O)O [Fosfosal] no (0)

Tell me whether Euclidean distance is at least 1 here: CC(C)[C@H]1C(=O)N[C@@H](CCCNC(=N)N)C(=O)NCC(=O)N[C@@H](CC(=O)O)C(=O)N[C@H](Cc2ccccc2)C(=O)N1C [Cilengitide] yes (1)

Tell me whether Euclidean distance is at least 1 here: CNC(=O)c1cc(COc2nnc(Nc3ccc(Cl)cc3)c3ccoc23)ccn1 [Telatinib] no (0)

Tell me whether Euclidean distance is at least 1 here: Cc1cc(C(C)(C)C)c(O)c(C(C)(C)C)c1 [Butylated hydroxytoluene] no (0)

Tell me whether Euclidean distance is at least 1 here: NC(=O)c1ccc(I)c([N+](=O)[O-])c1 [Iniparib (BSI-201)] no (0)

Tell me whether Euclidean distance is at least 1 here: O=C(N/N=C/c1ccc(O)c(O)c1)c1cc2ccccc2cc1O [Dynasore] yes (1)

Tell me whether Euclidean distance is at least 1 here: CC1(C)S[C@@H]2[C@H](NC(=O)[C@H](N)c3ccccc3)C(=O)N2[C@H]1C(=O)O [Ampicillin sodium] no (0)

Tell me whether Euclidean distance is at least 1 here: CC(C)(C)NC(=O)[C@H]1CC[C@H]2[C@@H]3CC[C@H]4NC(=O)C=C[C@]4(C)[C@H]3CC[C@]12C [Finasteride] no (0)
